Form field: fraction ligated (one value per entry).
B1: F1*; the commonest letter at each place (parent)
chain: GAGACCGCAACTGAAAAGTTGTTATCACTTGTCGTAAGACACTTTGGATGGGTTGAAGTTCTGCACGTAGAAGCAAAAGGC

- Variants of: B1
- method notes: fraction ligated after 30 min (ligated reads / total reads); higher = more ligase activity
- assay setup: with F1*sub RNA substrate (template-directed ligation), 42 °C

mutant id: A24C A36G
fraction ligated: 0.0223
//
mutant id: A39C G47T
fraction ligated: 0.3
//
mutant id: G46T G50T
fraction ligated: 0.148
//
mutant id: C26A T30C
fraction ligated: 0.781
//
mutant id: T35G T49C
fraction ligated: 0.727
//
mutant id: A39G G47C
fraction ligated: 0.343
//
mutant id: A37T A57G
fraction ligated: 0.842
//
mutant id: A36C G55A
fraction ligated: 0.827
//
mutant id: G55A
fraction ligated: 0.822
//
mutant id: T25A A27G
fraction ligated: 0.372
//
mutant id: C26A G34A
fraction ligated: 0.786
//
mutant id: A24G G50T
fraction ligated: 0.491
//
mutant id: T35A C42G
fraction ligated: 0.847
//
mutant id: C33G G55T
fraction ligated: 0.777
//
mutant id: G31T G50C
fraction ligated: 0.0159
//
mutant id: T23G T35A
fraction ligated: 0.834
//
mutant id: A39T A57T
fraction ligated: 0.781
//
mutant id: A48T
fraction ligated: 0.768
//
mutant id: C28G G31A
fraction ligated: 0.799
//
mutant id: T44C G55T
fraction ligated: 0.779
//
mutant id: C42A T44C
fraction ligated: 0.834
//
mutant id: T35C T49A
fraction ligated: 0.756
//
mutant id: A39T G55T
fraction ligated: 0.804
//
mutant id: A37T T43C
fraction ligated: 0.806
//
mutant id: T32C T44A
fraction ligated: 0.751
//
mutant id: A39C C40G
fraction ligated: 0.811
//
mutant id: A39T T49C
fraction ligated: 0.0992
//
mutant id: G31A T43C
fraction ligated: 0.797
//
mutant id: C42A A56T
fraction ligated: 0.798
//
mutant id: G46A T49C
fraction ligated: 0.38
//
mutant id: C26T A37C
fraction ligated: 0.841
//
mutant id: T45C A57G
fraction ligated: 0.812
//
mutant id: T25A A39T
fraction ligated: 0.255
//
mutant id: G34C C40A
fraction ligated: 0.805
//
mutant id: C28A T30G
fraction ligated: 0.808
//
mutant id: A24G T30C
fraction ligated: 0.693
//
mutant id: T32G T43C
fraction ligated: 0.81
//
mutant id: A27G A48G
fraction ligated: 0.788
//
mutant id: G46T A48C
fraction ligated: 0.127
//
mutant id: T30C G50A
fraction ligated: 0.175
//
mutant id: A37G T44G
fraction ligated: 0.85
//
mutant id: T30G T35A
fraction ligated: 0.845
//
mutant id: A36C C40A
fraction ligated: 0.804
//
mutant id: T23A C33A
fraction ligated: 0.855
//
mutant id: T44G G47T
fraction ligated: 0.0521
//
mutant id: A36G G46A
fraction ligated: 0.836
//
mutant id: T30A G47C
fraction ligated: 0.128
//
mutant id: C28G A39G
fraction ligated: 0.772
//
mutant id: T29A G38C
fraction ligated: 0.851
//
mutant id: A41G C42T
fraction ligated: 0.83
//
mutant id: C26G T35A
fraction ligated: 0.79
//
mutant id: A27G T49C
fraction ligated: 0.601
//
mutant id: C28T T29A
fraction ligated: 0.823
//
mutant id: T29C T49A
fraction ligated: 0.62
//
mutant id: A24C G31T
fraction ligated: 0.0308
//
mutant id: A27C A36C
fraction ligated: 0.793
//
mutant id: C33T T35G
fraction ligated: 0.854
//
mutant id: T32G C40T
fraction ligated: 0.836
//
mutant id: T29G T49A
fraction ligated: 0.753
//
mutant id: A39G A48C
fraction ligated: 0.766
//
mutant id: G46C G55C
fraction ligated: 0.171
//
mutant id: A27T C42T
fraction ligated: 0.822
//
mutant id: T35C T44C
fraction ligated: 0.841
//
mutant id: A36G G46C
fraction ligated: 0.803
//
mutant id: A37G G47C
fraction ligated: 0.269
//
mutant id: A27T C28G
fraction ligated: 0.802
//
mutant id: T32C A56C
fraction ligated: 0.727
//
mutant id: T25G G55T
fraction ligated: 0.132
//
mutant id: G34T A57C
fraction ligated: 0.806
//
mutant id: A39C T49C
fraction ligated: 0.159
//
mutant id: C40A G55T
fraction ligated: 0.787
//
mutant id: T45A G50T
fraction ligated: 0.0542
//
mutant id: A41T T44G
fraction ligated: 0.8
//
mutant id: A41C
fraction ligated: 0.775
//
mutant id: T25G T44G
fraction ligated: 0.474
//
mutant id: G47T A48G
fraction ligated: 0.183
//
mutant id: G38C C40T
fraction ligated: 0.802
//
mutant id: C40A G55A
fraction ligated: 0.807
//
mutant id: A27G G47C
fraction ligated: 0.583
//
mutant id: C26T T35A
fraction ligated: 0.854
//
mutant id: A27G A36T
fraction ligated: 0.826
//
mutant id: T44A T49G
fraction ligated: 0.785
//
mutant id: T23G G46A
fraction ligated: 0.809
//
mutant id: G38C G46C
fraction ligated: 0.523
//
mutant id: A41C G46C
fraction ligated: 0.639
//
mutant id: T25G G34T
fraction ligated: 0.735
//
mutant id: T44A A57T
fraction ligated: 0.815
//
mutant id: T29A T32A
fraction ligated: 0.869
//
mutant id: T44A A48C
fraction ligated: 0.758
//
mutant id: T32A
fraction ligated: 0.842
//
mutant id: G31C A57C
fraction ligated: 0.788
